The origin of these recorded values is patent US10508109B2.

- test.target: UniProt Q9H5I1
- Sequence (Q9H5I1 whole entry): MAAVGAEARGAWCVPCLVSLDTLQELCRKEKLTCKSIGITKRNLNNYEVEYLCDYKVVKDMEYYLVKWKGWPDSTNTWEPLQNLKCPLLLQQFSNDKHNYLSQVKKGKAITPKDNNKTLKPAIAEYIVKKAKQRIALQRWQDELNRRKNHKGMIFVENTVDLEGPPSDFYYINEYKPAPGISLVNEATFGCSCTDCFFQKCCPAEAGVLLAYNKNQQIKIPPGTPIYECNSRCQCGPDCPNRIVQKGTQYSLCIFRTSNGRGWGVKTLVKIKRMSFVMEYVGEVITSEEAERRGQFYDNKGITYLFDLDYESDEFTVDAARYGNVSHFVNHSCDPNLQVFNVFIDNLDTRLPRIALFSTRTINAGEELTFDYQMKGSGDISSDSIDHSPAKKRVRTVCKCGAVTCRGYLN
- test.method.notes: biochemical
- Format: biochemical
- settings: 3H-SAM 100 nM, H3 Histone Peptide 350 nM, room temperature 3 hours
Structures can show the parent of a compound that is named as a salt.
Record form. Attribute: IC50. Fill in for each entry.

Some entries whose results are on file:
molecule	result
COc1cc(OC)c(-c2cn3ccc(N4CCN(c5cc(N6CCNCC6)ncn5)CC4)cc3n2)cc1Cl	23.1 nM
COc1cc(OC)c(-c2cn3ccc(N4CCN(c5cnc(N6CCCC6)nc5)CC4)cc3n2)cc1Cl	62 nM
COc1cc(OC)c(-c2cn3ccc(N4CCN(Cc5ccncc5Br)CC4)cc3n2)cc1Cl	35.4 nM

From here, focus on the item given below.
IC50 of CNc1ncc(N2CCN(c3ccn4cc(-c5cc(Cl)c(OC)cc5OC)nc4c3)CC2)cn1 [Example 340, trifluoroacetate] on UniProt Q9H5I1?
17.1 nM
